Target: T1, Cbx7.V1 (tags removed, used for FP and ITC) (human, UniProt O95931 7-66, E8D (printed as the back-mutation D8E) | Q9D | V10I (printed as the …))
T1 construct: chromodomain of human Cbx7 (Cbx7-chromo), UniProt O95931; source: E. coli BL21(DE3), purified (Ni-NTA; tags removed with TEV protease)
T1 sequence: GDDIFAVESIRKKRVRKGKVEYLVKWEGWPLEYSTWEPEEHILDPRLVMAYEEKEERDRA
Experiment: ITC; peptides (1.2-2 mM, syringe) titrated into Cbx7.V1 (70-112 µM, cell); 25 °C; PBS pH 7.4, 1 mM TCEP; one-site binding model
Details: both partners purified
# maps each entry to its pKd
pKd (log units): -log10 of the concentration in mol/L.

binder	valueType	numericValue
KQLATKAARKSAPATGGVK (trimethyl-lysine at K27; biotin followed by an aminohexanoic acid linker at the N-terminus) [H3K27me3 peptide, N-terminal biotin]	pKd	5.11

Now let's try a different one.
## Input Read the entry ARTKQTARKSTGGKAPR (trimethyl-lysine at K9; biotin followed by an aminohexanoic acid linker at the N-terminus) [H3K9me3 peptide, N-terminal biotin] and write its reported pKd.
## Output 5.15
